# procedure.text: Phase 1 PK Part 2: relative bioavailability, dose proportionality, food effect of milled API tablet
# Format: in vivo, human
# measurement.parameters: human, plasma, oral, 10 mg, Dose proportionality, completers; Treatment F (Reference): 1 × 10 mg Formulation Concept 2, fasting; read-out: Geometric Mean AUClast
# Description: This is a Phase 1, open-label, single dose, multicenter, 4-part study in healthy adult participants. Potential participants will be screened from Day −28 to Day −2 to determine participants' eligibility for study participation. […] In Parts 1 and 2, plasma concentrations will be determined for aticaprant. […] The following plasma PK parameters of aticaprant will be determined. […]
measured.quantity: AUC(0-t) (µg·h/mL)
// units = µg·h/mL; emit number, no label

Requested read-out: AUC(0-t). Entry: Cc1cc(C)cc(C2CCCN2Cc2ccc(Oc3ccc(C(N)=O)cc3F)cc2)c1 (stereo not shown)
0.274

###

# procedure.text: Phase 1 PK Part 2: relative bioavailability, dose proportionality, food effect of milled API tablet
# Type: in vivo, human
# measurement.parameters: human, plasma, oral, 5 mg, Treatment G: 1 × 5 mg Formulation Concept 2 (milled API tablet), fasting; mean; read-out: Cmax
measured.quantity: Cmax

Fill blank: measured Cmax of the compound Cc1cc(C)cc(C2CCCN2Cc2ccc(Oc3ccc(C(N)=O)cc3F)cc2)c1 (stereo not shown) is ____.
17.4 ng/mL

###

# procedure.text: Phase 1 PK Part 2: relative bioavailability, dose proportionality, food effect of milled API tablet
# Type: in vivo, human
# measurement.parameters: human, plasma, oral, 5 mg, Treatment G: 1 × 5 mg Formulation Concept 2 (milled API tablet), fasting; mean; read-out: AUC∞
measured.quantity: AUC(0-inf)
The reply should consist of the numeric value with the unit placed after it.

AUC(0-inf) lookup needed for Cc1cc(C)cc(C2CCCN2Cc2ccc(Oc3ccc(C(N)=O)cc3F)cc2)c1 (stereo not shown) , thanks.
154 ng·h/mL

###

# procedure.text: Phase 1 PK Part 1: relative bioavailability, dose proportionality, food effect of unmilled API tablet
# Format: in vivo, human
# measurement.parameters: human, plasma, oral, 10 mg, Treatment D: 1 × 10 mg Formulation Concept 1 (unmilled API tablet), after high-fat breakfast; mean
measured.quantity: Vd/F (L)
Record the value in L, omitting the unit from your answer.

I would be grateful if you could share the reported Vd/F for Cc1cc(C)cc(C2CCCN2Cc2ccc(Oc3ccc(C(N)=O)cc3F)cc2)c1 (stereo not shown) .
835

###

# procedure.text: Phase 1 PK Part 2: relative bioavailability, dose proportionality, food effect of milled API tablet
# Assay type: in vivo, human
# measurement.parameters: human, plasma, oral, 5 mg, Dose proportionality, completers; Treatment G (Test): 1 × 5 mg Formulation Concept 2, fasting, Dose Normalized to 10 mg; read-out: Geometric Mean AUClast
measured.quantity: AUC(0-t) (ng·h/mL)
Write down the numeric answer in ng·h/mL and omit the unit.

May I ask what AUC(0-t) has been recorded for Cc1cc(C)cc(C2CCCN2Cc2ccc(Oc3ccc(C(N)=O)cc3F)cc2)c1 (stereo not shown) [aticaprant] ?
285

###

# procedure.text: Phase 1 PK Part 2: relative bioavailability, dose proportionality, food effect of milled API tablet
# Format: in vivo, human
# measurement.parameters: human, plasma, po, 10 mg, Treatment E: 2 × 5 mg oral capsule, fasting; median
measured.quantity: Tmax (h)
The response must be a number in h with no trailing unit.

Which value of Tmax has been reported for Cc1cc(C)cc(C2CCCN2Cc2ccc(Oc3ccc(C(N)=O)cc3F)cc2)c1 (stereo not shown) [aticaprant] in the records?
2

Reference for the values: patent US12201610B2
